Test system: human hepatoma cell line Hep-G2
Assay: Cytotoxicity towards tumour cells in vitro (Cell Titer 96 formazane colorimetric assay)
Assay type: cell-based
Details: 10^−5 M, 48 h, percentage inhibition of the formation of formazane relative to the control
quantityKind: Cytotoxicity at 10^−5 M (%)

>>> endpointvalue("O=C(NO)c1ccc(NC(=O)[C@H](Cc2ccc3ccccc3c2)NC(=O)c2ccc3c(c2)OCO3)cc1")
79.3
>>> endpointvalue("O=C(NO)c1ccc(NC(=O)[C@H](Cc2ccc(C(F)(F)F)cc2)NC(=O)c2cncc(Br)c2)cc1")
72.4
>>> endpointvalue("O=C(NO)c1ccc(NC(=O)[C@H](Cc2ccc(-c3ccccc3)cc2)NC(=O)c2ccccc2)cc1")
81.6
>>> endpointvalue("O=C(NO)c1ccc(NC(=O)[C@@H](Cc2ccc3ccccc3c2)NC(=O)c2ccccc2)cc1")
75.2
>>> endpointvalue("CC(=O)N[C@@H](Cc1ccc2ccccc2c1)C(=O)Nc1ccc(C(=O)NO)cc1")
56.2
>>> endpointvalue("O=C(NO)c1ccc(NC(=O)[C@H](Cc2ccccc2)NC(=O)c2ccccc2)cc1")
77.4
>>> endpointvalue("CC(=O)N[C@H](Cc1ccc2ccccc2c1)C(=O)Nc1ccc(C(=O)NO)cc1")
48.3
>>> endpointvalue("O=C(NO)c1ccc(NC(=O)[C@H](Cc2cccc(F)c2)NC(=O)c2ccc3c(c2)OCO3)cc1")
62.9
>>> endpointvalue("O=C(NO)c1ccc(NC(=O)[C@H](Cc2ccc(-c3ccccc3)cc2)NC(=O)c2cncc(Br)c2)cc1")
61.7
>>> endpointvalue("O=C(NO)c1ccc(NC(=O)[C@@H](Cc2ccc3ccccc3c2)NC(=O)c2cncc(Br)c2)cc1")
68.2
>>> endpointvalue("O=C(NO)c1ccc(NC(=O)[C@H](Cc2ccc3ccccc3c2)NC(=O)c2ccccc2)cc1")
76.5
>>> endpointvalue("O=C(NO)c1ccc(NC(=O)[C@H](Cc2ccccc2)NC(=O)c2ccc3ccccc3c2)cc1")
77.3
>>> endpointvalue("CC(=O)N[C@@H](Cc1ccc(C(F)(F)F)cc1)C(=O)Nc1ccc(C(=O)NO)cc1")
39.3
>>> endpointvalue("CC(=O)N[C@@H](Cc1ccccc1)C(=O)Nc1ccc(C(=O)NO)cc1")
17.1
>>> endpointvalue("O=C(NO)c1ccc(NC(=O)[C@H](Cc2ccc(-c3ccccc3)cc2)NC(=O)c2ccc3ccccc3c2)cc1")
73.7
>>> endpointvalue("O=C(NO)c1ccc(NC(=O)[C@@H](Cc2ccc3ccccc3c2)NC(=O)c2ccc3c(c2)OCO3)cc1")
72.5

---

Test system: TNFα production by peripheral blood mononucleocytes stimulated with LPS
Test: Inhibition of TNFα production by human monocytes stimulated with LPS
Type: cell-based
Conditions: LPS 10 ng/ml, 24 hours, ELISA
pIC50: −log10 of the molar value.
quantityKind: pIC50

>>> endpointvalue("O=C(NO)c1ccc(NC(=O)[C@H](Cc2ccc3ccccc3c2)NC(=O)c2ccc3c(c2)OCO3)cc1")
8.32
>>> endpointvalue("O=C(NO)c1ccc(NC(=O)[C@H](Cc2ccc(-c3ccccc3)cc2)NC(=O)c2ccc3ccccc3c2)cc1")
7.67
>>> endpointvalue("O=C(NO)c1ccc(NC(=O)[C@H](Cc2ccc(O)cc2)NC(=O)c2ccc3c(c2)OCO3)cc1")
6.00
>>> endpointvalue("O=C(NO)c1ccc(NC(=O)[C@H](Cc2ccccc2)NC(=O)c2ccc3ccccc3c2)cc1")
8.07
>>> endpointvalue("O=C(NO)c1ccc(NC(=O)[C@H](Cc2cccc(F)c2)NC(=O)c2ccc3c(c2)OCO3)cc1")
8.17
>>> endpointvalue("O=C(NO)c1ccc(NC(=O)[C@@H](Cc2ccc3ccccc3c2)NC(=O)c2ccc3ccccc3c2)cc1")
7.77
>>> endpointvalue("O=C(NO)c1ccc(NC(=O)[C@H](Cc2ccc(C(F)(F)F)cc2)NC(=O)c2ccc3ccccc3c2)cc1")
7.63
>>> endpointvalue("O=C(NO)c1ccc(NC(=O)[C@@H](Cc2ccc3ccccc3c2)NC(=O)c2ccc3c(c2)OCO3)cc1")
8.77
